Recorded values, source ChEMBL document CHEMBL2073784.

measured_on: OATP1B1 (SLCO1B1) (Homo sapiens, UniProt Q9Y6L6)
Sequence (Q9Y6L6 whole entry): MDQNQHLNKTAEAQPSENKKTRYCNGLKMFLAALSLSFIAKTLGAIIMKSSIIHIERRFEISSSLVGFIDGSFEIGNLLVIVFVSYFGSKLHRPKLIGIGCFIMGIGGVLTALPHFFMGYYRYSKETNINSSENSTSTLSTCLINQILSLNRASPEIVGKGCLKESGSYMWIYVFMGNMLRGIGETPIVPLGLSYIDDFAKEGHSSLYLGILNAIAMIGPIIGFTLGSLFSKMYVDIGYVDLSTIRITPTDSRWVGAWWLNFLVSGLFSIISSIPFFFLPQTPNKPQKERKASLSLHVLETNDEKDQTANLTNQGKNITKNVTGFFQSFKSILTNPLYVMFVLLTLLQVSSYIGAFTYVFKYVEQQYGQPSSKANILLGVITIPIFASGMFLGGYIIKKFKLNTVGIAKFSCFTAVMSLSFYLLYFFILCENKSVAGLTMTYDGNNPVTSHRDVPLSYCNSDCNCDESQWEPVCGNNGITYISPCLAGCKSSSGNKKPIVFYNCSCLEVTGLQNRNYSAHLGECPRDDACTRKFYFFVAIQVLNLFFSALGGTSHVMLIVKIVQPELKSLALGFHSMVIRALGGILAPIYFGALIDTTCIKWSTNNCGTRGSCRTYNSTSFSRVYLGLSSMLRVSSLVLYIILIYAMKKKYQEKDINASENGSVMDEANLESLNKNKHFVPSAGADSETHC
procedure_summary: TP_TRANSPORTER: inhibition of Estrone-3-sulfate uptake(Estrone-3-sulfate: 9.2nM) in Xenopus laevis oocytes
Type: functional, cell-based, Oocyte
Set-up: scale not given: the % may be the effect or the level left
test_parameters: probe estrone-3-sulfate
parameter: Activity (%)

>>> print(df.to_string())
                                   molecule  parameter  assay_value
0  CCc1c2c(nc3ccc(O)cc13)-c1cc3c(c(=O)n1C2)COC(=O)[C@]3(O)CC [7-ETHYL-10-HYDROXYCAMPTOTHECIN]   Activity           85
1  CCc1c2c(nc3ccc(OC[C@@H]4O[C@H](C(=O)O)[C@@H](O)[C@H](O)[C@H]4O)cc13)-c1cc3c(c(=O)n1C2)COC(=O)[C@]3(O)CC   Activity           45
2  CCc1c2c(nc3ccc(OC(=O)N4CCC(N5CCCCC5)CC4)cc13)-c1cc3c(c(=O)n1C2)COC(=O)[C@]3(O)CC   Activity           60

====

measured_on: OATP-C (OATP1B1, SLCO1B1) (Homo sapiens, UniProt Q9Y6L6)
Sequence (Q9Y6L6 whole entry): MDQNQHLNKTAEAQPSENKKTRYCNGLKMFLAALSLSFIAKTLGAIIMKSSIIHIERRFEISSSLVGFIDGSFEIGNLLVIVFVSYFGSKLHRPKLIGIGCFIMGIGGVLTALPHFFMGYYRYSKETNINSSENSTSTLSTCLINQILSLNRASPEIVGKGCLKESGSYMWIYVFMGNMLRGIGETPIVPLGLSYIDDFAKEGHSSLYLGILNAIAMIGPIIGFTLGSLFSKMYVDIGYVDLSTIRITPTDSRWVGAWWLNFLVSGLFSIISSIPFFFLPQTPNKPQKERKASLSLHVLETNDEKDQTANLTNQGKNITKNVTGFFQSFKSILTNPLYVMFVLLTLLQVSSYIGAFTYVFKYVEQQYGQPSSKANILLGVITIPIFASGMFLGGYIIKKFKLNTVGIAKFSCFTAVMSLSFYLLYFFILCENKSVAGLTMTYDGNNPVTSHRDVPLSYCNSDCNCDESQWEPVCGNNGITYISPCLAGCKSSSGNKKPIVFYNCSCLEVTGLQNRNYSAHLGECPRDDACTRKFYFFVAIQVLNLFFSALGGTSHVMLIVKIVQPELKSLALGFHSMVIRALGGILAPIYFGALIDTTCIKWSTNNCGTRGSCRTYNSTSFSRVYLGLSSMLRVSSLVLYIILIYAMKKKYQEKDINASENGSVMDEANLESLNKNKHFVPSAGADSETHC
procedure_summary: TP_TRANSPORTER: inhibition of estrone-3-sulfate uptake (Estrone-3-sulfate: 9.2 nM) by Rosiglitazone at a concentration of 10uM in OATP-C-expressing Xenopus oocytes
Type: functional, cell-based, Oocyte
test_parameters: xenopus laevis, probe estrone-3-sulfate
parameter: inhibition at 10 µM (%)

                                   compound  assay_value
0  CN(CCOc1ccc(CC2SC(=O)NC2=O)cc1)c1ccccn1 (stereo unspecified) [ROSIGLITAZONE]           60
